# Subject Of Test: MEK1 activated ERK1 (Homo sapiens)
# Construct: purchased Millipore (Billerica, Mass.) 14-439-K
# Sequence (P27361 whole entry): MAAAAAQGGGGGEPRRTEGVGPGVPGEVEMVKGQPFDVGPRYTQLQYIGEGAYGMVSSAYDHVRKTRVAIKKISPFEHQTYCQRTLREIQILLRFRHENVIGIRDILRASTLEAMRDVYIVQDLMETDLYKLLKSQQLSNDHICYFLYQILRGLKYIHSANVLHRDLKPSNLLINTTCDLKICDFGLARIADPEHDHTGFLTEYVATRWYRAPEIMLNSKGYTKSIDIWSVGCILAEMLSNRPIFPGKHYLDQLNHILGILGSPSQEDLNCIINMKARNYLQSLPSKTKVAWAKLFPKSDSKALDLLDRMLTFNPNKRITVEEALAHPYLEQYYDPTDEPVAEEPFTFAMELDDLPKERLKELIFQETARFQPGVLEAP
# Test Name: Omnia continuous-read kinase assay for potency against MEK1 activated ERK1
# Type: biochemical
# Particulars: MEK1 activated ERK1, ATP at KM; read-out: ERK1 Omnia WT ATP KM IC50
pIC50: −log10 of the molar value.
Readout Label: pIC50

C=CC(=O)Nc1ccccc1Nc1nc(NC2CCN(S(C)(=O)=O)CC2)ncc1Cl ... 6.30 to 7.00
C=CC(=O)Nc1ccccc1Nc1nc(Nc2ccc(N3CCN(C(=O)CCCC(=O)NCCCOCCOCCOCCCNC(=O)CCCC[C@@H]4SC[C@@H]5NC(=O)N[C@@H]54)CC3)cc2OC(F)F)ncc1Cl ... 6.30 to 7.00
C=CC(=O)N(C)c1ccccc1Nc1nc(Nc2cc(C(N)=O)ccc2C#N)ncc1Cl ... 6.00 to 6.30
